study-system: PLK1 (Homo sapiens)
Sequence (P53350 whole entry): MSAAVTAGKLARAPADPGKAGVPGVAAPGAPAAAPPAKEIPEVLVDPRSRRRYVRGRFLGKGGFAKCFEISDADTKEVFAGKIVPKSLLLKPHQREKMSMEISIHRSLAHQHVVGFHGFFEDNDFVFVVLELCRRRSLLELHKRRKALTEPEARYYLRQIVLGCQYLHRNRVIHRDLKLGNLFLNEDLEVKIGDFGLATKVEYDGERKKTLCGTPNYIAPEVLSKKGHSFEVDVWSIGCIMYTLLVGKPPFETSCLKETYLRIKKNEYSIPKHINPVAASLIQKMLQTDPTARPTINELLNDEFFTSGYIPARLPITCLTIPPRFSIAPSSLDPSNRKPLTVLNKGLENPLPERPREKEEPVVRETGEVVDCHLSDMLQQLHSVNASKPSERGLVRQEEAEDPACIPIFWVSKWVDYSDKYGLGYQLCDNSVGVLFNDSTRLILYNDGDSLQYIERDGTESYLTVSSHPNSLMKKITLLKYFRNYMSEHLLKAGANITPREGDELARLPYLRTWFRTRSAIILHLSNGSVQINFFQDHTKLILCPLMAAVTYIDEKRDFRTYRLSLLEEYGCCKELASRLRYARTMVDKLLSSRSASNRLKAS
test-summary: PLK TR-FRET peptide assay, PLK1
Type: biochemical
applied-conditions: GST-PLK1, 60 min reaction
pIC50: −log10 of the molar value.
Listed compounds paired with reported pIC50

What value of pIC50 has been reported for the following compound? `CC[C@@H]1C(=O)N(C)c2cnc(-c3c[nH]nc3-c3ccc(C(F)(F)F)cc3)nc2N1C(C)C`
5.00 to 6.00

Next up: `CC[C@@H]1C(=O)N(C)c2cnc(-c3c[nH]nc3-c3ccccc3)nc2N1C(C)C`
> 6.00

Next up: `CC[C@@H]1C(=O)N(C)c2cnc(-n3ccnc3-c3ccc(F)cn3)nc2N1C1CCCC1`
> 6.00
